- targetEntity: GLO1 in PC12 cells (Rattus norvegicus)
- Sequence (Q6P7Q4 2-184): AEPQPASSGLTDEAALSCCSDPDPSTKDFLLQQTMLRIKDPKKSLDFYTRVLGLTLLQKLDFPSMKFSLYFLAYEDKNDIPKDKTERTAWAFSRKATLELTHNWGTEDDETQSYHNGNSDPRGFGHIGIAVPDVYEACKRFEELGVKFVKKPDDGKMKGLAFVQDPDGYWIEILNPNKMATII
- testName: cellular thermal shift assay
- experimentalConditions: half-maximal thermal stabilization
pEC50: −log10 of the molar value.
assayMetric: pEC50

smilesRepr	valueObserved
O=c1cc(-c2ccc(O)c(O)c2)oc2cc(O)cc(O)c12	4.34

---

- targetEntity: GLO1 (Homo sapiens, UniProt Q04760)
- Sequence (Q04760 2-184): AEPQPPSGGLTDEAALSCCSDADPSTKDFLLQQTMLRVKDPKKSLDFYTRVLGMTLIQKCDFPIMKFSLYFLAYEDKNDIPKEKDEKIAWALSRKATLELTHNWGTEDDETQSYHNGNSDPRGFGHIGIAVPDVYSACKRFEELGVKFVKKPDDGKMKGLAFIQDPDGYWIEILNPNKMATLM
- testName: fluorescence spectroscopy
- Assay type: binding

smilesRepr	Kd
O=c1cc(-c2ccc(O)c(O)c2)oc2cc(O)cc(O)c12	47.2 µM
